Source listed as the supplement of paper PMC10567573.

B1: INTS3 (parent)
chain: KKREFRFHPIKETVVEEPVDITPY

Variants of: B1
test: protein stability index of a GFP-peptide fusion (GPS, HEK-293T) (PSI 1-6); higher = more stable;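 further: lentivirally expressed fusions sorted by FACS into six bins by GFP to DsRed ratio, PSI derived from sequencing read proportions per bin multiplied by bin number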
testConditions: c terminus: a fixed tail appended
experimentalEndpoint: protein stability index
Numbers only.

Use the examples below as a reference point.
Short answer for "Y24Q" : protein stability index was 2.04

Field protein stability index (entry "V15A" ) reads 2.01

Data point: "E16L" ; protein stability index = 1.88

Each of the following entries comes with a recorded value; kindly state protein stability index for each.
1. E12G
2. P18G
3. P9C
4. T22F
5. V15C
6. V15F

Result:
1. 2.93
2. 1.79
3. 2.03
4. 2.57
5. 1.68
6. 1.91

State the recorded protein stability index for every item in the following list.
1. I21D
2. K1R
3. K2T
4. F5S
5. V15M

Result:
1. 2.37
2. 1.84
3. 2.14
4. 4.45
5. 2.13

For every record below, what is its protein stability index?
1. T22L
2. K11C
3. D20C
4. V15R
5. H8F
6. Y24D
7. F7T
8. I21A

Result:
[2.33, 2.15, 1.61, 1.98, 3.49, 2.44, 4.79, 1.76]
